# Tested on: UACC-257 melanoma
# assay-method-text: NCI-60 one-dose screen, 48 h
# condition-context: 10 µM unless noted
The panel holds about 83,000 compounds, 20% with a hit somewhere; the sample as a whole holds those more often. Activity calls are given as the source filed them. Rule for the calls: active = growth percent below 10; inactive = the rest.
Mark one answer only. Choices: active, inactive

Solved cases (2 shown):
[
  {
    "compound": "CN(C)Cc1ccc(NC(=O)c2cncc(C#Cc3cnc(N)c4ncccc34)c2)cc1C(F)(F)F",
    "assigned-label": "inactive"
  },
  {
    "compound": "O=C(CCCCCCCC(=O)N1CCCCC1)N1CCCCC1",
    "assigned-label": "inactive"
  }
]

Q: Hello, I am checking results. What call was entered for CCOC(=O)NC(=S)n1oc(=O)c2ccccc21 ?
A: inactive

Q: Hello, I am checking results. What call was entered for Nc1cc(Br)cc2c1[nH]c(=O)c1ccccc12 ?
A: inactive

Q: Hello, I am checking results. What call was entered for COC(=O)c1nc(-c2ccccc2)oc1S(=O)(=O)N1CCCC(C)C1 (stereo not given) ?
A: inactive

Q: Hello, I am checking results. What call was entered for COc1cc2c(cc1OCCCN1CCN(C(=S)SCCC(C#N)(c3ccccc3)c3ccccc3)CC1)N=C[C@@H]1CCCN1C2=O ?
A: active

Q: Hello, I am checking results. What call was entered for CCOc1ncc([N+](=O)[O-])c(OCC)n1 ?
A: inactive

Q: Hello, I am checking results. What call was entered for CN(C)c1ccc(C(=S)c2ccc(N(C)C)cc2)cc1 ?
A: inactive

Q: Hello, I am checking results. What call was entered for O=C(Cc1ccc(/C=C/C(=O)c2ncc[nH]2)cc1)Nc1cc(F)c(F)c(F)c1 ?
A: inactive

Q: Hello, I am checking results. What call was entered for Cc1c(C(C)(C)O)cn2ncnc(Oc3ccc(NC(=O)Nc4ccc(Cl)c(C(F)(F)F)c4)c(F)c3)c12 ?
A: inactive

---

# Tested on: NCI/ADR-RES ovarian
# assay-method-text: NCI-60 one-dose screen, 48 h (100 = growth as untreated, 0 = no growth, -100 = all killed)
# condition-context: 10 µM unless noted
This is part of a sample that, as a whole, favours compounds with a hit. Of some 83,000 tested, about 20% had one in any assay.
// assign T if growth falls strictly below 80%, else F (ties count as F)

Solved cases (4 shown):
[
  {
    "compound": "Cc1cn(C)cn1",
    "target": "NCI/ADR-RES ovarian",
    "assigned-label": "F"
  },
  {
    "compound": "COc1cc(C[C@H]2COc3cc(O)cc(O)c3C2=O)ccc1O",
    "target": "NCI/ADR-RES ovarian",
    "assigned-label": "T"
  },
  {
    "compound": "CC(O)Cc1c[nH]c(=O)[nH]c1=O (stereo not given)",
    "target": "NCI/ADR-RES ovarian",
    "assigned-label": "F"
  },
  {
    "compound": "C#Cc1cccc(Nc2ncnc3cc(NC(=O)CCl)ccc23)c1",
    "target": "NCI/ADR-RES ovarian",
    "assigned-label": "T"
  }
]

Q: Item C=C(C)[C@@H]1CC[C@]2(COC3CCCCO3)CC[C@]3(C)[C@H](CC[C@@H]4[C@@]5(C)C=C(C=O)C(=O)C(C)(C)[C@@H]5CC[C@]43C)[C@@H]12 (stereo not given in full) : growth beneath 80%, strictly?
A: T

Q: Item C=C(C)[C@@H]1CC[C@]2(CO)CC[C@]3(C)[C@H](CC[C@@H]4[C@@](C)(CCCN)[C@H](C(=C)C)CC[C@]43C)[C@@H]12 : growth beneath 80%, strictly?
A: T

Q: Item CCOC(=O)C/C(=N\Nc1cc(=O)[nH]c2ccc(OC)cc12)C(=O)OCC : growth beneath 80%, strictly?
A: F

Q: Item CCOC(=O)C(CCN(C)C)c1ccccc1 (stereo not given) : growth beneath 80%, strictly?
A: F
